- EXPERIMENT: Elimination rate constant in Swiss mouse at 50 mg/kg, po by LC-MS/MS analysis
- Format: ADME, organism-based
- EXPERIMENTAL PARAMETERS: in vivo
QUANTITY KIND: k el (s⁻¹)
Provide only the numeric value, understood in s⁻¹.

Task: Indicate its recorded k el; the compound in question is COc1ccc(C2C3=C(CCC3=O)Nc3c2c(-c2c[nH]c4ccccc24)nn3-c2ccc(Cl)c(Cl)c2)cc1OC (stereo unspecified)
Result: 3.89e-05

###

# inhibition of growth at 25 µM per entry
- Tested on: Leishmania donovani
- EXPERIMENT: Antileishmanial activity against Leishmania donovani MHOM/IN/80/DD8 amastigote forms harboring luciferase gene infected in mouse J774 cells at 25 uM after 72 hrs by Steady-Glo reagent based luminescence assay relative to control
- Type: functional
- EXPERIMENTAL PARAMETERS: MHOM/IN/80/DD8, J774, 72 h, read-out: GI
Provide only the numeric value, understood in %.

Task: Enter recorded inhibition of growth at 25 µM with Leishmania donovani for COc1cc(C2C3=C(CCC3=O)Nc3c2c(-c2c[nH]c4ccccc24)nn3-c2ccc(Cl)cc2)cc(OC)c1OC (stereo not drawn) here.
Result: 45.2

Task: Enter recorded inhibition of growth at 25 µM with Leishmania donovani for COc1ccc(OC)c(C2C3=C(CCC3=O)Nc3c2c(-c2c[nH]c4ccccc24)nn3-c2ccc(Cl)cc2)c1 (stereo not drawn) here.
Result: 37.3

More entries:
Task: Enter recorded inhibition of growth at 25 µM with Leishmania donovani for COc1cc(C2C3=C(CC(C)(C)CC3=O)Nc3c2c(-c2c[nH]c4ccccc24)nn3-c2ccc(Cl)cc2)cc(OC)c1OC (stereo not drawn) here.
Result: 23.6
